- Tested on: OVCAR-3 ovarian
- protocol-description: NCI tumour cell line growth inhibition, 48 h; in the data active = GI50 below about 0.43 µM; inactive = the rest
Outcome codes: 1 for active, -1 for inactive

compound	class
COc1ccc2c(c1)C(=O)/C(=C/c1ccc([N+](=O)[O-])s1)O2	1
COc1ccc(Cn2cnc3cc(C(=O)Nc4cccc5ccccc45)ccc32)c(OC)c1	1
COc1cc(C2CC(c3ccc(Nc4ccnc5cc(Cl)ccc45)cc3)=NN2C=O)cc(OC)c1OC (stereo not given)	-1
Cn1ccnc1C(=O)/C=C/c1ccc(C(=O)Nc2ccccc2O)cc1	-1
CCN(CC)CCCNc1nc2ccccc2c2c(=O)c3cc(Cl)ccc3sc12	-1
COc1cc(OC)c2cc(C(=O)O)c(=O)oc2c1	-1
O[C@@H]1CCCN1Cc1cc2cc3c(cc2c2cc(OCc4ccccc4)ccc12)OCO3	-1
CN1C(=O)c2cc([N+](=O)[O-])ccc2[C@H]2C(=O)c3cc4c(cc3[C@H]21)OCO4	1
O=C(Nc1cccc([N+](=O)[O-])c1)c1ccc2ccccc2c1O	-1
O=C(CC(O)c1ccncc1)c1ccccc1 (stereo not given)	-1

---

Here, each record is paired with measured TGI data.
- System: IGROV1 ovarian
- protocol-description: NCI tumour cell line growth inhibition, 48 h
property: TGI

compound	property	value
O=c1oc2cc(O)ccc2cc1-c1nc2ccccc2s1	TGI	> 100 µM
CC1CC(=O)C(CC(=O)O)C1C(C(=O)C(=O)Nc1c(C#N)cccc1[N+](=O)[O-])[N+](=O)[O-] (stereo unspecified)	TGI	> 100 µM
CC(=O)c1c(O)ccc2c(C)c(C(=O)O)oc12	TGI	> 100 µM
NC(CCCCN=Cc1nc(-c2ccccc2)oc1O)C(=O)O (stereo unspecified)	TGI	> 100 µM
O=C(O)CSc1nnc(CCCCCCCCc2nnc(SCC(=O)O)o2)o1	TGI	> 100 µM
C[N+](C)(C)C1(C(=O)[O-])CC1	TGI	> 100 µM
O=C1/C(=C/c2ccc(Cl)cc2)CN(Cc2cn(CCNc3ccnc4cc(Cl)ccc34)nn2)C/C1=C\c1ccc(Cl)cc1	TGI	0.732 µM
Cc1ccc(S(=O)C[C@@]2(C(F)F)NC(=O)NC2=O)cc1 (stereo partly specified)	TGI	> 100 µM
CC(=O)N1CC[N+](C)(CCCCN2c3ccccc3Sc3cc(N=[N+]=[N-])ccc32)CC1	TGI	> 100 µM
Cn1cnc([N+](=O)[O-])c1Sc1nc2cccnc2s1	TGI	33 µM
CS(=O)(=O)Nc1cccc(-c2ccc3c(NC(=O)C4CC4)n[nH]c3c2)c1	TGI	> 25 µM

---

- Tested on: KM12 colon
- protocol-description: NCI tumour cell line growth inhibition, 48 h
Here, each record is paired with measured TGI data.
property: TGI

molecule	property	value
O=C1Nc2ccccc2/C1=C/c1ccccc1	TGI	33.2 µM
N#CC(C#N)=Cc1ccc(C=C2SC3=C(SCCS3)S2)s1	TGI	> 100 µM
C[C@@H]1OC(=O)C[C@H]2CC(=O)N(CCC3CN(S(=O)(=O)C(F)(F)F)c4ccc(Cc5ccc6c(c5)C(CCN5C[C@H]7[C@@H](CC(=O)O[C@H]7C)CC5=O)CN6S(=O)(=O)C(F)(F)F)cc43)C[C@@H]21 (some centres undefined)	TGI	> 100 µM
COc1cc(Nc2ncc3c(C)nc(-c4cccc(Oc5ccccc5)c4)n3n2)cc(OC)c1OC	TGI	> 25 µM
O=C(CC(O)c1ccncc1)c1ccccc1 (centres undefined)	TGI	> 100 µM
O=C1NC(N/N=C/c2ccccc2)=N/C1=C\c1cccs1	TGI	> 70.9 µM
CCSc1nc(N2CCCCC2)c2cn[nH]c2n1	TGI	> 100 µM
Cn1cnc([N+](=O)[O-])c1Sc1nc2cccnc2s1	TGI	> 100 µM
CC(=O)Nc1ccc(S(=O)(=O)[N-]C2C(=O)c3ccccc3C(=O)C2[n+]2ccccc2)cc1 (centres undefined)	TGI	27.9 µM
O=C(Nc1ccc([N+](=O)[O-])cc1C(=O)O)c1ccc([N+](=O)[O-])cc1	TGI	99.5 µM
COP(=O)(OC)C(O)/C=C/c1ccco1 (centres undefined)	TGI	> 100 µM
CC(C)[Si](OCC1CC(C[C@H]2CC(C[C@H]3C[C@@H](CO[Si](C(C)C)(C(C)C)C(C)C)OC(C)(C)O3)OC(C)(C)O2)OC(C)(C)O1)(C(C)C)C(C)C (some centres undefined)	TGI	> 100 µM
COc1ccc(Cn2cnc3cc(C(=O)Nc4cccc5ccccc45)ccc32)c(OC)c1	TGI	8.06 µM
CC(=O)N1C(C(=O)NNc2ccccc2)CSC1c1ccccc1 (centres undefined)	TGI	> 100 µM
Clc1ccc2c(c1)CC1C[N+]3=C(CCCC3)C1=C2 (centres undefined)	TGI	> 100 µM
c1ccc(SC(Sc2ccccc2)c2ccc3c(c2)OCO3)cc1	TGI	> 100 µM
CN(C)CCCNC(=O)c1cc(NC(=O)c2cc(NC(=O)[C@H]3C[C@@H]3C(=O)Nc3cc(C(=O)Nc4cc(C(=O)NCCCN(C)C)n(C)c4)n(C)c3)cn2C)cn1C	TGI	> 100 µM
Cn1cnc([N+](=O)[O-])c1SC1=NCCS1	TGI	> 100 µM
Cc1ccc(S(=O)(=O)N/N=C/c2oc(-c3ccccc3Cl)c(-c3ccccc3Cl)c2[N+](=O)[O-])cc1	TGI	> 100 µM

All figures here come from PubChem BioAssay (NCI).
